target: IGF1R (human, UniProt P08069); assay: SPR
Sequence (P08069 31-932): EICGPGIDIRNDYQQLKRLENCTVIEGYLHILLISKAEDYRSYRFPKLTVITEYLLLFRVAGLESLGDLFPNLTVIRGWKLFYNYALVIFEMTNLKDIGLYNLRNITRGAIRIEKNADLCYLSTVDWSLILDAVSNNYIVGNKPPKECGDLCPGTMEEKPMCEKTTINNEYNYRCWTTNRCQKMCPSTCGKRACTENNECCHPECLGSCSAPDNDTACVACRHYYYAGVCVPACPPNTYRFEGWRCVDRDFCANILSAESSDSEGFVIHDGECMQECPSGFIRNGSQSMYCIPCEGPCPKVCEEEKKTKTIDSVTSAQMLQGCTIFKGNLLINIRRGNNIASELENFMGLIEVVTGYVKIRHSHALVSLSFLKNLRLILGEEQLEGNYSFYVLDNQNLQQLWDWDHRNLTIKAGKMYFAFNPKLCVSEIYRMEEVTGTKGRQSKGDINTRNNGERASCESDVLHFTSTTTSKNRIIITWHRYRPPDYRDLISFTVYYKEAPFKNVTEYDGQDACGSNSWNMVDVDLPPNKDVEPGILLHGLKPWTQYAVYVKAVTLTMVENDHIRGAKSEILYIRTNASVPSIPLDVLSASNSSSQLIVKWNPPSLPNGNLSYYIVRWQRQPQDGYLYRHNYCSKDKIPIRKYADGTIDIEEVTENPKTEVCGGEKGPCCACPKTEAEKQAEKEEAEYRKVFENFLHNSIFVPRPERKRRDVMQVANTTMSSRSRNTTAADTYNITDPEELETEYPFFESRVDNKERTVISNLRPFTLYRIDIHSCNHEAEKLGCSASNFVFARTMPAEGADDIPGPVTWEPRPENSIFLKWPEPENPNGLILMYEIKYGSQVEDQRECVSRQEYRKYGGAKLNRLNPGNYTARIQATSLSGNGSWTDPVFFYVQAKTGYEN
Measured Property: Kd (nM)

* IGF1R5 (antibody, V domains shown) VH: QVKLEESGGGLVQAGGSLRLSCAASGRTIDNYAMAWSRQAPGKDREFVATIDWGDGGARYANSVKGRFTISRDNAKGTMYLQMNNLEPEDTAVYSCAMARQSRVNLDVARYDYWGQGTQVTVSS | 1.1
* IGF1R5_22_88 (antibody, V domains shown) VH: QVKLEESGGGLVQAGGSLRLCCAASGRTIDNYAMAWSRQAPGKDREFVATIDWGDGGARYANSVKGRFTISRDNAKGTMCLQMNNLEPEDTAVYSCAMARQSRVNLDVARYDYWGQGTQVTVSS | 1.4
